- Test system: MCF7
- ASSAY OVERVIEW: Antiproliferative activity against human MCF7 cells
- Type: functional, cell-based
READOUT KIND: IC50 (µM)
Kindly answer with a numeric value in µM, unit omitted.

Report IC50 for "CCOc1ccc2nc(NC(N)=S)sc2c1" please.
6.72

---

- System: PC-3
- ASSAY OVERVIEW: cells
- CONDITION PARAMETERS: Homo sapiens, PC-3, 72 h
- Description: Antiproliferative activity against human PC-3 cells assessed as reduction in cell growth incubated for 72 hrs by Celltiter-glo assay
READOUT KIND: IC50
The answer consists of two parts: a number and, after it, its unit.

Can you look up IC50 on PC-3 for "O=C(Nc1ccc(-c2cc(N3CCOCC3)c3nc(N4CCOCC4)sc3c2)cc1)Nc1cccnc1" ?
0.35 µM

The measured values listed here are drawn from ChEMBL document CHEMBL6127045.
